- System: Bacillus subtilis
- test_description: Antibacterial activity against Bacillus subtilis assessed as zone of inhibition at 20 mg/ml
- Format: functional
- measurement_setup: read-out: IZ

{"columns": ["smiles_string", "system", "zone of inhibition at 20000 µg/mL"],
 "data": [
  ["Cc1ccc(Nc2c(C#N)c(N)nc3c(/N=N/c4ccc(S(=O)(=O)Nc5ncc(C)cn5)cc4)c(=O)[nH]n23)cc1", "Bacillus subtilis", "9 mm"],
  ["COc1ccc(Nc2c(C#N)c(N)nc3c(/N=N/c4ccc(S(=O)(=O)Nc5ncccn5)cc4)c(=O)[nH]n23)cc1", "Bacillus subtilis", "9 mm"],
  ["Cc1cnc(NS(=O)(=O)c2ccc(/N=N/c3c(=O)[nH]n4c(NN)c(C#N)c(N)nc34)cc2)nc1", "Bacillus subtilis", "9 mm"],
  ["CSc1c(C#N)c(N)nc2c(/N=N/c3ccc(S(=O)(=O)Nc4ncccn4)cc3)c(=O)[nH]n12", "Bacillus subtilis", "9 mm"],
  ["CSc1c(C#N)c(N)nc2c(/N=N/c3ccc(S(=O)(=O)Nc4ncc(C)cn4)cc3)c(=O)[nH]n12", "Bacillus subtilis", "9 mm"],
  ["CN[C@@H]1[C@H](O[C@H]2[C@H](O[C@H]3[C@H](O)[C@@H](O)[C@H](N=C(N)N)[C@@H](O)[C@@H]3N=C(N)N)O[C@@H](C)[C@]2(O)C=O)O[C@@H](CO)[C@H](O)[C@H]1O", "Bacillus subtilis", "18 mm"]
]}
